Data credit: patent US20220347299A1

- MEASUREMENT_PROTOCOL: Peak absorption and fluorescence emission wavelengths in solvents
- Type: physicochemical
- DETAILS: DCM; 100 nM; excitation at peak of absorption
Field: λem(max)/nm. Provide a value for each of the compounds that follow.
Just the number please, in nm, no unit attached.

**Query** Given the entry CC(C)(C)OC(=O)/C=C/c1ccc(C#Cc2ccc(N3CCNCC3)cc2)s1 , report its measured λem(max)/nm.
**Result** 524

**Query** Need λem(max)/nm of COC(=O)/C=C/c1ccc(C#Cc2ccc(N3CCNCC3)cc2)cc1 , thanks.
**Result** 563

**Query** Fill in the blank: the reported λem(max)/nm of CC(C)(C)OC(=O)/C=C/c1ccc(C#Cc2ccc(N3CCNCC3)cc2)cc1 is ____.
**Result** 550
